Where do these numbers come from? They come from PubChem BioAssay AID1159506.

seed-corrected z-score values by entry
EXPERIMENT_NOTES: Identification of proteins required for the processing of the EWS-FLI1 nascent transcript;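 further: robust z of luciferase light less the median z of siRNAs with the same seed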
CONDITIONS_USED: TC32 Ewing sarcoma NR0B1-luc vs CMV-luc, 48 h; screened at 20 nM (by protocol)
Over roughly 59,000 sequences, the read-out has its median near -0.00055; the lowest 2% begin near -2. The entries come from a sample that favours the lowest values as a whole.
READOUT_KIND: seed-corrected z-score

                          residue_string  measured
0     UUUCAUAGAUUAGCACUCC against PRKACB    -0.257
1       UUUCCUAUUCACAAGAGCG against FHIT       1.2
2      UGCUUAGCUUCUUUAACCC against PLIN2     0.638
3       AGUUGAAUAAGAAAGUACC against MTM1      1.55
4       UUAUGUACCUUGUUACAUU against CD72    -0.111
5  UUAUCUCCAGCUAUGCUGU against LOC440292      1.49

###

EXPERIMENT_NOTES: Identification of proteins required for the processing of the EWS-FLI1 nascent transcript;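 further: robust z of luciferase light less the median z of siRNAs with the same seed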
CONDITIONS_USED: TC32 Ewing sarcoma NR0B1-luc vs CMV-luc, 48 h; screened at 20 nM (by protocol)
Method: Ewing sarcoma (ES) cells depend on the EWS-FLI1 fusion transcription factor for cell survival. […] Luciferase activity was assessed 48 hours post siRNA-transfection. Twenty microl of serum-free media containing Lipofectamine RNAiMax (0.05 microl) was added to wells containing siRNA (0.8 pmol). […] Luciferase expression was measured using OneGlo (Promega, Madison, WI). […]
Whole data set: some 59,000 sequences, median the read-out near -0.00055, cut for the lowest 2% near -2. Only a selection was taken, and the lowest values are over-represented in it overall.
Label rule, in plain words: seed-corrected z-score of 0.6 and up is Condition met, under 0.6 is Condition not met.

>>> df
                          residue_string        label_class
0  UGUUGACUCACUGUAGGCU against LOC729683      Condition met
1      UUCUGAAUCAAAGUUGUUC against CBLN1      Condition met
2      AUCUGAUCCAUAUUCUCCC against DIEXF      Condition met
3       UCGAGUGUGAUGUCUCUUC against AGO3  Condition not met
4    UUUAGCUCUGGAACAAUGC against SLC38A1  Condition not met
5     UUCAUACUCAGGCAUAUCC against SEC23A  Condition not met

###

EXPERIMENT_NOTES: Identification of proteins required for the processing of the EWS-FLI1 nascent transcript;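 further: robust z of luciferase light less the median z of siRNAs with the same seed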
CONDITIONS_USED: TC32 Ewing sarcoma NR0B1-luc vs CMV-luc (EWS-FLI1 target promoter against control promoter), 48 h; screened at 20 nM (by protocol)
Over roughly 59,000 sequences, the read-out has its median near -0.00055; the lowest 2% begin near -2. Many of the other results were omitted from the sample, so the lowest values are more common in it than they were.
Parameter class (string): assigned from measured seed-corrected z-score. Ranges: low interval (below -1), middle interval (-1 to below 0.1), high interval (0.1 or more)

>>> df
                           residue_string      label_class
 0       UCUGGUGAACGACUCUUGC against MGMT    high interval
 1     AAAUGUUCACCUGUCUUCU against RPS4Y1  middle interval
 2    UCCACUUAAACACUCCUCC against DCLRE1C     low interval
 3       UUCGGUAUCGUCUGUAUCC against USP8     low interval
 4   UUCUCUUCAACAAGUGACA against C6orf201     low interval
 5     UAUGUUGUCACUAGUCAGC against PNPLA7  middle interval
 6    AUAGAAAACACCAAGAUUA against TMEM63A    high interval
 7      UUCUCUAUCUCAUGAAUCC against RAB19  middle interval
 8      UGUUUUACCAACAGCACCA against CDC42     low interval
 9       UUGUGGGUGGUGAAGAGGC against EPOR    high interval
10     UCCAUGUUGUCGAUCAUCU against RGS9BP     low interval
11    UUACGUAUGCACCAUUUGC against SLC35D1    high interval
12  AUCGUGCUCGCUUGGAUCC against LOC729083  middle interval
13     UUGGUGAAUAAAUAUCAUC against ZBTB25    high interval
14      UACUCGUACACUUCCAUGC against THBS3    high interval
15      UUUUUGGGUUGUGCGAUGG against CLDN8  middle interval
16  UUUCAUAGUAAUCGUAGAC against LOC728715    high interval
17      UUGAUUCGCAACCAUAGCC against BTBD7     low interval
18      UAUCUAGCAGCUCUCCCAG against AMHR2    high interval
19    AAGCUUCUUAACUUCAUUC against RPL14P1     low interval
20     AUUGAGGUAGGAGCCGUCG against FGFRL1     low interval
21      UUGCUUAUGAGCUUGAUGG against MAST1     low interval
22     UAAUGCGAUACAACUCGAC against COX4I1    high interval
23       UUAGAGAAUAUGCCCAUGA against FGD3     low interval
24   UAAACUGAAACGGAAAUGC against PTCHD3P1  middle interval
25      UUGAACUCAGCGAUCAUCU against TNNC2  middle interval
